protocol: Oral exposure in mice
Assay type: in vivo, mouse
statedConditions: male, SCID, mouse, plasma, po, 10 mg/kg
propertyName: concentration at 6 h (ng/mL)

INSERT INTO assay_data (molecule, assayvalue) VALUES
  ('N#Cc1ccc(N2CCC3(CCN(c4ccc(C(=O)N5CCCN(C6CCN(c7ccc8c(c7)C(=O)N(C7CCC(=O)NC7=O)C8=O)CC6)CC5)cc4)CC3)C2)cc1Cl (centres unmarked)', 11),
  ('N#Cc1ccc(N2CCC3(CCN(c4ccc(C(=O)N5CCN(C6CN(c7ccc8c(c7)C(=O)N(C7CCC(=O)NC7=O)C8=O)C6)CC5)cc4)CC3)C2)cc1Cl (centres unmarked)', 246);
